- measured-target: T1, ARHGAP21, Q5T5U3
- T1 sequence (Q5T5U3 45-169, limits assumed, looked up): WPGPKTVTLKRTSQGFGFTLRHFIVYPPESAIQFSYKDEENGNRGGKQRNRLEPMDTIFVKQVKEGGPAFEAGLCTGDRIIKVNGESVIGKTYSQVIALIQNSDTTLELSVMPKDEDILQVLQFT
- method-notes: holdup assay
- Design: key: below the threshold = too weak to quantify, mostly under pKd 3.1 to 4
- study-conditions: plain residues with an end cap or a label only (N-terminal biotin on a linker: ado-ado)
measure: pKd

Illustrative cases are given below, each with its answer.
In [3]: df
Out[3]:
                        binder  measure               result
0  EKPIDSETKM [SLC1A3, P43003]      pKd  below the threshold
1     SQPLLVHDDV [KIT, P10721]      pKd  below the threshold
2    DFKHTKSFII [JAM2, P57087]      pKd  below the threshold
3  PLATCDETSI [SEMA4F, O95754]      pKd  below the threshold
4    GDSSRKEYFI [GYPC, P04921]      pKd  below the threshold

pKd reported for this binder RDYTQSSSSL [GRM5, P41594] : 4.17
